Assay: chemical genetic growth profiling, strain panel (AID 1159580);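 also: tested at 20 µM; growth read once vehicle control cultures reached saturation at 30 °C; 1 = growth at the plate median or of vehicle wells; lower values mean less growth of the strain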
Details: S. cerevisiae deletion strains, growth OD, locus YKR026C, strain gcn3
The whole screen tested about 5,500 compounds, of which about 2,000 (36%) were called active. About 18% were inconclusive and are not listed. Rule as the data show it: active = normalized growth mostly below about 0.91 (no sharp cut-off); inconclusive = no clear call, values can overlap the other calls; inactive = mostly above about 0.92. The list shows a part of the results. Where a SMILES comes first, the peptide text is derived from it. Side-chain parts run from the residue outwards. [ ]: non-standard residue; d: D form. The star is where a group is joined. X1 = CCC(C)C(N)C1=NC(C(=O)*)CS1; Orn = NCCC[CH](N)C(=O)O
Your response should consist of one outcome taken from label 1 (active), label 0 (inactive)

Example entries and their recorded answers appear below.
- compound: "Cc1onc(-c2ccccc2Cl)c1C(=O)N[C@@H]1C(=O)N2[C@@H]1SC(C)(C)[C@@H]2C(=O)O"
  category: "label 0"
- compound: "NC(N)=NC(N)=Nc1ccccc1"
  category: "label 0"

Prompt line: Recorded test call requested for COc1cccc(OC)c1C(=O)N[C@@H]1C(=O)N2[C@@H]1SC(C)(C)[C@@H]2C(=O)O
Response line: label 0

Prompt line: Call for entry CC(=O)CC1CCCCN1 (centres undefined) :
Response line: label 0

Prompt line: Write down the call the test reported for this compound. Item: C1CCC(C(CC2CCCCN2)C2CCCCC2)CC1 (centres undefined)
Response line: label 0

Prompt line: State the result this test recorded for CCOc1cccc(C(=O)c2ccc(O)c(O)c2O)c1 .
Response line: label 0

Prompt line: Assay outcome for Cc1onc(-c2c(Cl)cccc2Cl)c1C(=O)N[C@@H]1C(=O)N2[C@@H]1SC(C)(C)[C@@H]2C(=O)O : what was it?
Response line: label 1

Prompt line: Call for entry CCC(C)C(N)C1=NC(C(=O)NC(CC(C)C)C(=O)NC(CCC(=O)O)C(=O)NC(C(=O)NCCCCC2NC(=O)C(CC(N)=O)NC(=O)C(CC(=O)O)NC(=O)C(Cc3cnc[nH]3)NC(=O)C(Cc3ccccc3)NC(=O)C(C(C)CC)NC(=O)C(CCCN)NC2=O)C(C)CC)CS1 (stereo not drawn) (cyclo(DNK([Ile-Glu-Leu-X1])[Orn]IFH); configuration not given here) :
Response line: label 0

Prompt line: Just curious, what result did O=C(OC[C@H]1O[C@H](OC(=O)c2cc(O)c(O)c(OC(=O)c3cc(O)c(O)c(O)c3)c2)[C@H](OC(=O)c2cc(O)c(O)c(OC(=O)c3cc(O)c(O)c(O)c3)c2)[C@@H](OC(=O)c2cc(O)c(O)c(OC(=O)c3cc(O)c(O)c(O)c3)c2)[C@@H]1OC(=O)c1cc(O)c(O)c(OC(=O)c2cc(O)c(O)c(O)c2)c1)c1cc(O)c(O)c(OC(=O)c2cc(O)c(O)c(O)c2)c1 get here?
Response line: label 0

Prompt line: Can you look up the reported call for CC1(C)S[C@@H]2[C@H](NC(=O)Cc3ccccc3)C(=O)N2[C@H]1C(=O)O for me?
Response line: label 0

* * *

Experiment: chemical genetic growth profiling, strain panel (AID 1159580);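 also: tested at 20 µM; growth read once vehicle control cultures reached saturation at 30 °C; 1 = growth at the plate median or of vehicle wells; lower values mean less growth of the strain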
Conditions: S. cerevisiae deletion strains, growth OD, locus YLR370C, strain arc18
The whole screen tested about 5,500 compounds, of which about 2,000 (36%) were called active. About 18% were inconclusive and are not listed. Cut-off read from the data, not from the text of the source: active = normalized growth mostly below about 0.91 (no sharp cut-off); inconclusive = no clear call, values can overlap the other calls; inactive = mostly above about 0.92. The list shows a part of the results.
Log the outcome using a class from t for active, f for inactive

Worked set:
- compound: "CCc1cccc2c3c([nH]c12)C(CC)(CC(=O)O)OCC3 (configuration not stated)"
  category: "f"
- compound: "NCCc1c[nH]c2ccccc12"
  category: "f"
- compound: "CC1=NN(c2ccccc2)C(=O)C1"
  category: "f"
- compound: "CC[C@@H](CO)NC(=O)[C@@H]1C=C2c3cccc4[nH]cc(c34)C[C@H]2N(C)C1"
  category: "f"
- compound: "CC(=O)N[C@@H](Cc1c[nH]c2ccccc12)C(=O)O"
  category: "f"

Prompt line: What was the test verdict on COc1ccc(C2C(=O)c3ccccc3C2=O)cc1 ?
Response line: f

Prompt line: Could you please tell me the result logged for CC1(C)S[C@@H]2[C@H](NC(=O)[C@H](C(=O)O)c3cccs3)C(=O)N2[C@H]1C(=O)O in this assay?
Response line: f

Prompt line: GET /call?item= COc1ccc(-c2oc3ccccc3c(=O)c2O)cc1OC returns the recorded outcome of this test.
Response line: t

Prompt line: Name the outcome recorded for COC1(C)CCC2OC2(C)CCC2C1CC2(C)C (configuration not stated) in the assay.
Response line: f

Prompt line: In this assay, the call recorded for Cc1onc(-c2c(Cl)cccc2Cl)c1C(=O)N[C@@H]1C(=O)N2[C@@H]1SC(C)(C)[C@@H]2C(=O)O was what?
Response line: f

Prompt line: For this compound, state the assay outcome: COc1cc(-c2oc3cc(O)ccc3c(=O)c2O)ccc1O
Response line: f

Prompt line: Assay result, entry O=C1c2ccccc2C(=O)C1c1ccccc1 — outcome?
Response line: f

* * *

Experiment: chemical genetic growth profiling, strain panel (AID 1159580);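 also: tested at 20 µM; growth read once vehicle control cultures reached saturation at 30 °C; 1 = growth at the plate median or of vehicle wells; lower values mean less growth of the strain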
Settings: S. cerevisiae deletion strains, growth OD, locus YPL241C, strain CIN2, hits give low values
The whole screen tested about 5,500 compounds, of which about 2,000 (36%) were called active. About 18% were inconclusive and are not listed. The list shows a part of the results.
measure: normalized growth
// keep it numeric: no unit symbol after the value

Observe how each entry below is paired with its result.
- compound: "O=C1C=C(Cl)CC(c2ccc(C(F)(F)F)cc2)C1 (centres undefined)"
  recordedMeasurement: 1.02
- compound: "COc1ccc([C@H]2COc3c(ccc(O)c3OC)C2)c(OC)c1O"
  recordedMeasurement: 0.958
- compound: "COc1ccc2c(c1OC)OC[C@@H](c1ccc(OC)c(OC)c1OC)C2"
  recordedMeasurement: 1.01

Prompt line: Consider the compound NC1CC1c1ccccc1 (centres undefined) . State its measured normalized growth.
Response line: 1.02

* * *

Entries annotated with measured normalized growth
Test: chemical genetic growth profiling, strain panel (AID 1159580);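 also: tested at 20 µM; growth read once vehicle control cultures reached saturation at 30 °C; 1 = growth at the plate median or of vehicle wells; lower values mean less growth of the strain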
Details: S. cerevisiae deletion strains, growth OD, locus YNL153C, strain GIM3, hits give low values
In all, about 5,500 compounds went through this assay and about 2,000 (36%) were called active. Inconclusive results (about 18%) are left out. The list shows a part of the results. Where a SMILES comes first, the peptide text is derived from it. Side-chain parts run from the residue outwards. [ ]: non-standard residue; d: D form. The star is where a group is joined. X1 = CCC(C)C(N)C1=NC(C(=O)*)CS1; Orn = NCCC[CH](N)C(=O)O
Just the number, please, no unit after it.

- molecule: "O=c1cc(C(F)(F)F)[nH]c2cc(Cl)cc(Cl)c12"
  normalized growth: 0.534
- molecule: "NC(=O)NO"
  normalized growth: 0.994
- molecule: "c1cc(C2CCCCC2)ccc1C1CCCCC1"
  normalized growth: 0.983
- molecule: "Cc1onc(-c2ccccc2Cl)c1C(=O)N[C@@H]1C(=O)N2[C@@H]1SC(C)(C)[C@@H]2C(=O)O"
  normalized growth: 1.01
- molecule: "Cn1cc(C(F)(F)F)nc1-c1ccc(OCC(O)CNCCOc2ccc(O)c(C(N)=O)c2)cc1 (stereo not drawn)"
  normalized growth: 1.01
- molecule: "CN(C)C(=O)N=NC(=O)N(C)C"
  normalized growth: 0.968
- molecule: "COc1ccc2c(c1)[C@]13CCCC[C@H]1[C@H](C2)N(C)CC3"
  normalized growth: 0.981
- molecule: "CCC(C)C(N)C1=NC(C(=O)NC(CC(C)C)C(=O)NC(CCC(=O)O)C(=O)NC(C(=O)NCCCCC2NC(=O)C(CC(N)=O)NC(=O)C(CC(=O)O)NC(=O)C(Cc3cnc[nH]3)NC(=O)C(Cc3ccccc3)NC(=O)C(C(C)CC)NC(=O)C(CCCN)NC2=O)C(C)CC)CS1 (stereo not drawn) (cyclo(DNK([Ile-Glu-Leu-X1])[Orn]IFH); configuration not given here)"
  normalized growth: 0.992
- molecule: "O=C1CCCN1c1ccc(Cl)c(Cl)c1"
  normalized growth: 0.95
- molecule: "CC(C)CC1NC(=O)C(CCCN)NC(=O)C(C(C)C)NC(=O)C2CCCN2C(=O)C(Cc2ccccc2)NC(=O)C(CC(C)C)NC(=O)C(CCCN)NC(=O)C(C(C)C)NC(=O)C2CCCN2C(=O)C(Cc2ccccc2)NC1=O (stereo not drawn) (cyclo(FPV[Orn]LFPV[Orn]L); configuration not given here)"
  normalized growth: 1

Prompt line: Return normalized growth (reported value) for this molecule: O=C(OC[C@H]1O[C@H](OC(=O)c2cc(O)c(O)c(OC(=O)c3cc(O)c(O)c(O)c3)c2)[C@H](OC(=O)c2cc(O)c(O)c(OC(=O)c3cc(O)c(O)c(O)c3)c2)[C@@H](OC(=O)c2cc(O)c(O)c(OC(=O)c3cc(O)c(O)c(O)c3)c2)[C@@H]1OC(=O)c1cc(O)c(O)c(OC(=O)c2cc(O)c(O)c(O)c2)c1)c1cc(O)c(O)c(OC(=O)c2cc(O)c(O)c(O)c2)c1
Response line: 0.086

Prompt line: Answer with reported normalized growth of CN(C)/C=C1/C(=O)NN=C1CSc1ccccn1
Response line: 1.03

Prompt line: # return recorded normalized growth for input CCOC([O-])=Nc1c[n+](N2CCOCC2)no1
Response line: 1

Prompt line: Give the reported value of normalized growth for this record: CC(NCCC(c1ccccc1)c1ccccc1)c1ccccc1 (stereo not drawn)
Response line: 0.921

The measurements presented in this section are drawn from PubChem BioAssay AID1159580.
